B1: LINE1-mini (parent)
chain: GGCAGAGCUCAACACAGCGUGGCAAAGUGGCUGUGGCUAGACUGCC

Variants of: B1
Experiment: self-cleavage, relative activity (ratio to wild type); higher = more cleavage; in vitro, sequencing; the parent is a self-cleaving ribozyme
propertyLabel: self-cleavage

Find the measured self-cleavage of C15G C42U and report it.
0.04

Please look at this variant and report its self-cleavage: A11C U38G
0.02

Consider the variant A16C G30C and give its recorded self-cleavage.
0.12

Report self-cleavage, nothing else, for this variant: G21C C23U
1.27

Supply reported self-cleavage belonging to this variant: G22U U43C
0.18

Answer with the recorded self-cleavage for the variant listed here: G29U U38G
0.02

State its self-cleavage for this variant: A26C G29U
0.54

# return recorded self-cleavage for input A4C A41U
0.23

Identify self-cleavage associated with the variant U38G U43A
0.02

Using known records, supply self-cleavage for G27C G33C
0.04

Please look at this variant and report its self-cleavage: A11U U38G
0.01

Read off the recorded self-cleavage for A25C G36U
0.11

Give the value of self-cleavage reported for the following: G19U G35U
0.16

Specify measured self-cleavage for C15G A26U .
0.07

Provide self-cleavage value for the following variant: C37U U38G
0.03

Give reported self-cleavage value for G33A A39U
0.06

Quickly give me recorded self-cleavage for A39G C45A
0.1

State its self-cleavage for this variant: G2A C46G
0.96

Tell me measured self-cleavage for A11U U38A please.
0.07

Read the entry C3U U32C and write its reported self-cleavage.
0.19

Kindly indicate its recorded self-cleavage. Item: U34G C37A
0.06

Specify self-cleavage for G29A C31A and stop.
0.43

Look up and report measured self-cleavage for this entry: G2U G22C
0.12

Look up and state reported self-cleavage for A41G G44C
0.05

Supply self-cleavage value. Item: A25U G36U
0.07

Note down self-cleavage recorded for G7U A11G
0.03

Note self-cleavage for the variant shown: C15A G19A
0.06

Quote self-cleavage reported for C10A C42A please.
0.02

Tell me its self-cleavage given G33U A39C as the entry.
0.07

Look up self-cleavage of C15G U43A and report it.
0.02

Please look at this variant and report its self-cleavage: G30C C37A
0.07

Provide self-cleavage value for the following variant: G30C C37U
0.1

State its self-cleavage for this variant: G22U A24U
1.4

For C23U C31U , write its self-cleavage.
0.47

Consider the variant U38A C46G . State its measured self-cleavage.
0.38

Query self-cleavage for C3U A4C
0.26

Please look at this variant and report its self-cleavage: G1A U43G
0.02

Read off the recorded self-cleavage for A41C C46U
0.04

Complete the entry with self-cleavage for "A39G"
0.1

Please report self-cleavage for the following variant: A25U G36A
0.12

Tell us which self-cleavage value is on record for U9A C31G
0.07

Respond only with self-cleavage recorded for C3G G44A
0.35

Fill in self-cleavage for record C18U C31U
0.04

Please supply the value of reported self-cleavage for the item G17A C46A
0.14

Provide only the value of recorded self-cleavage for G29U G35A
0.32

Identify the reported self-cleavage for the following entry. A25C G44U
0.16

Please indicate self-cleavage recorded for G22U G33C
0.07
